The entries below come with measured pIC50 values attached.
# test target: Human β2 adrenoceptor (Homo sapiens, UniProt P07550)
# Sequence (P07550 whole entry): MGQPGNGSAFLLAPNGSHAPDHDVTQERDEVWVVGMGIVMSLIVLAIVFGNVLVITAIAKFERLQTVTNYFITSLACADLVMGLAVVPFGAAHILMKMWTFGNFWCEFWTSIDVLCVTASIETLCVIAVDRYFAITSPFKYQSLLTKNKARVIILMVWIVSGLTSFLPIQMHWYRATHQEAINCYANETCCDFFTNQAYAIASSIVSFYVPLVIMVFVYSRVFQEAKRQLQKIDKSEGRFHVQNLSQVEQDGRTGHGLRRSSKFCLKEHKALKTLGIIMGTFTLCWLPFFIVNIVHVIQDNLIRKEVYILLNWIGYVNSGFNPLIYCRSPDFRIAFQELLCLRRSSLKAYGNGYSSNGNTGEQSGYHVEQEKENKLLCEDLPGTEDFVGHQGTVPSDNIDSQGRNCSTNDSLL
pIC50: −log10 of the molar value.

Observe how each entry below is paired with its result.
COc1cc(C(=O)N[C@H]2C[C@H](NC(=O)COc3cccc([C@](O)(C(=O)OCC4CCN(Cc5ccccc5)CC4)c4ccccc4)c3)C2)ccc1CNC[C@H](O)c1ccc(O)c2[nH]c(=O)ccc12 :: > 9.52
O=C(COc1cccc([C@](O)(C(=O)OCC2CCN(Cc3ccccc3)CC2)c2ccccc2)c1)N1CC(C(=O)N2CCC(CNC[C@H](O)c3ccc(O)c4[nH]c(=O)ccc34)CC2)C1 :: > 9.52
COc1cc(C(=O)NCCCOc2cccc([C@](O)(C(=O)OCC3CCN(Cc4ccccc4)CC3)c3ccccc3)c2)c(F)cc1CNC[C@H](O)c1ccc(O)c2[nH]c(=O)ccc12 [Compound 32I] :: > 9.52
COc1cc(NC(=O)NCc2ccc(COc3cccc([C@](O)(C(=O)OC4CCN(Cc5ccccc5)CC4)c4ccccc4)c3)cc2)ccc1CNC[C@H](O)c1ccc(O)c2[nH]c(=O)ccc12 :: 8.52 to 9.52
O=C(OCC1CCN(Cc2ccccc2)CC1)C(O)(c1cccc(OCCCCCNC[C@H](O)c2ccc(O)c3[nH]c(=O)ccc23)c1)C1CCCCC1 (stereo partly drawn) :: 8.52 to 9.52

We next turn to a different molecule, shown below.
Qu. State measured pIC50 of the molecule "O=C(COc1cccc([C@](O)(C(=O)OCC2CCN(Cc3ccccc3)CC2)c2ccccc2)c1)NCCCNC(=O)c1ccc(CCNC[C@H](O)c2ccc(O)c3[nH]c(=O)ccc23)cc1" with Human β2 adrenoceptor (Homo sapiens, UniProt P07550).
Ans. > 9.52
